tested on: [Candida] auris; assay: Antifungal activity against fluconazole resistant Candida auris 791 assessed as inhibition of fungal growth incubated for 48 hrs by CLSI protocol based microbroth dilution method; type: functional; conditions: Candidozyma auris
outcome measure: MIC50 (µg/mL)
Only the number, expressed in µg/mL, is required.

Example molecules with recorded MIC50:
[[record]]
smiles_input = "C[C@@H](n1ncc2cc(Cl)ccc2c1=O)[C@](O)(Cn1cncn1)c1ccc(F)cc1F"
units_text = "µg/mL"
value_reported = 1

[[record]]
smiles_input = "C[C@@H]1[C@H](O)[C@@H](C)/C=C/C=C/C=C/C=C/C=C/C=C/C=C/[C@H](O[C@@H]2O[C@H](C)[C@@H](O)[C@H](N)[C@@H]2O)C[C@@H]2O[C@](O)(C[C@@H](O)C[C@@H](O)[C@H](O)CC[C@@H](O)C[C@@H](O)CC(=O)O[C@H]1C)C[C@H](O)[C@H]2C(=O)O"
units_text = "µg/mL"
value_reported = 4


get_value(item= C[C@@H](n1ncc2cc(Cl)ccc2c1=O)[C@](O)(Cn1cnnn1)c1ccc(F)cc1F , readout=MIC50) returns 32

So, C[C@@H](n1cnc2cc(Cl)ccc2c1=O)[C@](O)(Cn1cncn1)c1ccc(F)cc1F ? Its MIC50 was 0.5

// sample O[C@@](Cn1cnnn1)(c1ccc(F)cc1F)C(F)(F)c1ccc(-c2ccc(OCC(F)(F)F)cc2)cn1 , its MIC50 was 8

For record C[C@@H](n1ccc2cc(Cl)ccc2c1=O)[C@](O)(Cn1cncn1)c1ccc(F)cc1F the listed MIC50 is 0.5

---

test system: Cryptococcus neoformans; assay: Antifungal activity against Cryptococcus neoformans H99 assessed as inhibition of fungal growth incubated for 72 hrs by CLSI protocol based microbroth dilution method; assay type: functional
Measured MIC50 by item

See these solved cases before continuing.
[[record]]
compound = "C[C@@H](n1cnc2cc(Cl)ccc2c1=O)[C@](O)(Cn1cncn1)c1ccc(F)cc1F [ALBACONAZOLE]"
outcome_measure = "MIC50"
value_reported = "< 0.008 µg/mL"

[[record]]
compound = "C[C@@H](n1ncc2cn(-c3ccc(Cl)cc3)nc2c1=O)[C@](O)(Cn1cncn1)c1ccc(F)cc1F"
outcome_measure = "MIC50"
value_reported = "4 µg/mL"

[[record]]
compound = "C[C@@H](n1ncc2cn(-c3ccc(Cl)c(Cl)c3)nc2c1=O)[C@](O)(Cn1cncn1)c1ccc(F)cc1F"
outcome_measure = "MIC50"
value_reported = "> 64 µg/mL"


// MIC50 value for C[C@@H](n1ncc2cn(-c3ccccc3)nc2c1=O)[C@](O)(Cn1cncn1)c1ccc(F)cc1F : > 64 µg/mL

---

test system: Candida parapsilosis; assay: Antifungal activity against Candida parapsilosis 22019 assessed as inhibition of fungal growth incubated for 24 hrs by CLSI protocol based microbroth dilution method; assay type: functional; settings: Lodderomyces parapsilosis
MIC50 for assorted compounds
Expressed in mg/L, but write only the number.

The compound listed as C[C@@H](n1ccc2ccccc2c1=O)[C@](O)(Cn1cncn1)c1ccc(F)cc1F shows MIC50 equal to 0.016

Note to self: MIC50 recorded for C[C@@H](n1ncc2cn(-c3ccc(OC(F)(F)F)cc3)nc2c1=O)[C@](O)(Cn1cncn1)c1ccc(F)cc1F was 0.5

The recorded MIC50 for C[C@@H](n1ncc2ccccc2c1=O)[C@](O)(Cn1cncn1)c1ccc(F)cc1F is 0.063

Reported MIC50 of C[C@@H](n1cnc2cc(OC(F)(F)F)ccc2c1=O)[C@](O)(Cn1cnnn1)c1ccc(F)cc1F : 0.25

Consider C[C@@H](n1ccc2cc(-c3ccccc3)ccc2c1=O)[C@](O)(Cn1cncn1)c1ccc(F)cc1F . Its measured MIC50 is 0.063

---

Below, each of the compounds is paired with its reported MIC50 value.
system: [Candida] auris; test: Antifungal activity against fluconazole resistant Candida auris 887 assessed as inhibition of fungal growth incubated for 48 hrs by CLSI protocol based microbroth dilution method; type: functional; settings: Candidozyma auris
Write it as a number; the unit µg/mL goes unstated.

[[record]]
smiles_input = "CC[C@@H]([C@H](C)O)n1ncn(-c2ccc(N3CCN(c4ccc(OC[C@@H]5CO[C@@](Cn6cncn6)(c6ccc(F)cc6F)C5)cc4)CC3)cc2)c1=O"
value_reported = 16

[[record]]
smiles_input = "C[C@@H](n1ccc2cc(Cl)ccc2c1=O)[C@](O)(Cn1cncn1)c1ccc(F)cc1F"
value_reported = 0.25

[[record]]
smiles_input = "O[C@@](Cn1cnnn1)(c1ccc(F)cc1F)C(F)(F)c1ccc(-c2ccc(OCC(F)(F)F)cc2)cn1"
value_reported = 4

[[record]]
smiles_input = "C[C@@H](n1cnc2cc(Cl)ccc2c1=O)[C@](O)(Cn1cnnn1)c1ccc(F)cc1F"
value_reported = 32

[[record]]
smiles_input = "C[C@@H](n1cnc2cc(Cl)ccc2c1=O)[C@](O)(Cn1cncn1)c1ccc(F)cc1F"
value_reported = 0.5


Short answer for C[C@@H](n1ncc2cc(Cl)ccc2c1=O)[C@](O)(Cn1cncn1)c1ccc(F)cc1F : MIC50 was 1

MIC50 reported for this compound C[C@@H](c1ncncc1F)[C@](O)(Cn1cncn1)c1ccc(F)cc1F : 2

Record C[C@@H](n1ncc2cc(Cl)ccc2c1=O)[C@](O)(Cn1cnnn1)c1ccc(F)cc1F , field MIC50: 16

---

test: Tmax in male ICR (CD-1) mouse at 10 mg/kg, po by LC-MS/MS analysis; format: ADME, organism-based; conditions: in vivo
outcome measure: Tmax (h)
Give a bare numeral; the unit h is implied.

Lab note: measured Tmax of C[C@@H](n1ccc2cc(Cl)ccc2c1=O)[C@](O)(Cn1cnnn1)c1ccc(F)cc1F was 2

---

biological target: Cytochrome P450 2C19 (Homo sapiens)
Sequence (P33261 whole entry): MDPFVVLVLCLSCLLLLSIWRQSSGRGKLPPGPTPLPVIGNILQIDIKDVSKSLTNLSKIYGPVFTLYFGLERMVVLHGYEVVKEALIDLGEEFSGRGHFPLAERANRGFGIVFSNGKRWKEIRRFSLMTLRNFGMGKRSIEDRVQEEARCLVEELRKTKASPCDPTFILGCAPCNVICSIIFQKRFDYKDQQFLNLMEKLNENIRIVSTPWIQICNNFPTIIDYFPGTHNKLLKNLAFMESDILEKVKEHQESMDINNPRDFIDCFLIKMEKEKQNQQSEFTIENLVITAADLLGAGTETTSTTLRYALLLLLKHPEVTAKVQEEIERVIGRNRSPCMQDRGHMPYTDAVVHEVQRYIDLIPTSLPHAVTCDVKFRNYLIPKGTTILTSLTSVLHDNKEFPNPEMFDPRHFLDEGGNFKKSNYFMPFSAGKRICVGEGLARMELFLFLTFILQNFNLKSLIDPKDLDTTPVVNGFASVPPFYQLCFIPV
outcome measure: pIC50
Just so you know, pIC50 here is -log10 of the concentration in molar units; reply with that number alone.

Reading of pIC50 for C[C@@H](n1cnc2cc(Cl)ccc2c1=O)[C@](O)(Cn1cncn1)c1ccc(F)cc1F [ALBACONAZOLE] with Cytochrome P450 2C19 (Homo sapiens): 4.89

---

test: Half-life in male ICR (CD-1) mouse at 5 mg/kg, iv by LC-MS/MS analysis; type: ADME, organism-based; conditions: in vivo
outcome measure: half-life (h)
Please give a number only; it is taken to be in h.

Sample C[C@@H](n1ccc2cc(Cl)ccc2c1=O)[C@](O)(Cn1cnnn1)c1ccc(F)cc1F ; half-life observed: 4.28

---

system: Candida parapsilosis; experiment: Antifungal activity against Candida parapsilosis 22019 assessed as inhibition of fungal growth incubated for 24 hrs by CLSI protocol based microbroth dilution method; assay type: functional; conditions: Lodderomyces parapsilosis
Each entry below carries its recorded MIC50.
I only need the number, in µg/mL, no unit after it.

[[record]]
molecule = "C[C@@H](n1cnc2cc(C(F)(F)F)ccc2c1=O)[C@](O)(Cn1cnnn1)c1ccc(F)cc1F"
outcome_measure = "MIC50"
units_text = "µg/mL"
value_reported = 0.125


So for CC[C@@H]([C@H](C)O)n1ncn(-c2ccc(N3CCN(c4ccc(OC[C@@H]5CO[C@@](Cn6cncn6)(c6ccc(F)cc6F)C5)cc4)CC3)cc2)c1=O [POSACONAZOLE] , the logged MIC50 turned out to be 0.25

Briefly, MIC50 measured for C[C@@H](n1ncc2cn(-c3ccc(C(F)(F)F)cc3)nc2c1=O)[C@](O)(Cn1cncn1)c1ccc(F)cc1F : 0.5

// MIC50 value for C[C@@H](n1ccc2cc(F)ccc2c1=O)[C@](O)(Cn1cnnn1)c1ccc(F)cc1F : 0.063

The value of MIC50 measured for the molecule OC(Cn1cncn1)(Cn1cncn1)c1ccc(F)cc1F [FLUCONAZOLE] turned out to be 1

Item: C[C@@H](n1cnc2cc(Cl)ccc2c1=O)[C@](O)(Cn1cnnn1)c1ccc(F)cc1F | MIC50: 0.063

---

experiment: AUC (0 to t) in male ICR (CD-1) mouse at 10 mg/kg, po by LC-MS/MS analysis; type: ADME, organism-based; details: in vivo
outcome measure: AUC(0-t) (ng·h/mL)
Entry rule: numbers only, all in ng·h/mL.

Per the record, C[C@@H](n1ccc2cc(Cl)ccc2c1=O)[C@](O)(Cn1cnnn1)c1ccc(F)cc1F has AUC(0-t) of 13600

---

experiment: Cmax in male ICR (CD-1) mouse at 10 mg/kg, po by LC-MS/MS analysis; type: ADME, organism-based; conditions: in vivo
outcome measure: Cmax (ng/mL)
Provide only the numeric value, understood in ng/mL.

The compound listed as C[C@@H](n1ccc2cc(Cl)ccc2c1=O)[C@](O)(Cn1cnnn1)c1ccc(F)cc1F shows Cmax equal to 2630

---

test system: [Candida] auris; experiment: Antifungal activity against fluconazole resistant Candida auris 791 assessed as inhibition of fungal growth incubated for 48 hrs by CLSI protocol based microbroth dilution method; type: functional; settings: Candidozyma auris
outcome measure: MIC50

[[record]]
smiles_input = "C[C@@H](n1cnc2cc(Cl)ccc2c1=O)[C@](O)(Cn1cnnn1)c1ccc(F)cc1F"
outcome_measure = "MIC50"
value_reported = "32 µg/mL"

[[record]]
smiles_input = "C[C@@H](n1ccc2cc(Cl)ccc2c1=O)[C@](O)(Cn1cnnn1)c1ccc(F)cc1F"
outcome_measure = "MIC50"
value_reported = "1 µg/mL"

[[record]]
smiles_input = "CC[C@@H]([C@H](C)O)n1ncn(-c2ccc(N3CCN(c4ccc(OC[C@@H]5CO[C@@](Cn6cncn6)(c6ccc(F)cc6F)C5)cc4)CC3)cc2)c1=O"
outcome_measure = "MIC50"
value_reported = "2 µg/mL"


Could you now consider this next compound?
What the record says about C[C@@H](c1ncncc1F)[C@](O)(Cn1cncn1)c1ccc(F)cc1F : MIC50 is 4 µg/mL
